# testedTarget: T1, FZD4 CRD (Homo sapiens, UniProt Q9ULV1)
# T1 construct: E42-V167; GPI anchor signal (C); expressed in transfected cells; host or cells: CHO cells, lentiviral pLenti-puro
# T1 sequence (Q9ULV1 42-167): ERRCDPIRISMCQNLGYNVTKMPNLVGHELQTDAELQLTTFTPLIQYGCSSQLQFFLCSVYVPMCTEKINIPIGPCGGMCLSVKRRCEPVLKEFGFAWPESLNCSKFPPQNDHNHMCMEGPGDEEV
# methodSummary: Immunofluorescence of anti-FZD5 Fab binding to CHO cells overexpressing Frizzled CRD
# Parameters: key: −: no binding; +: very weak binder; ++: weak binder; +++: good binder; ++++: very good binder
# Protocol: Plasmids: pLCKO lentiviral vector used for knockout (TKO) library construction and expression of individual gRNAs was constructed as described previously (Hart et al., 2015). Briefly, single guide RNA (sgRNA) scaffold was amplified from px330 (Addgene 42230) and cloned into pLKO.TRC005 lentiviral vector (Broad Institute, Cambridge, Mass.) using AgeI/EcoRI restriction sites. BfuAI sites were added at the 5′ end of the sgRNA scaffold for cloning the TKO library or individual gRNA target sequences. […]
quantity: Immunofluorescence binding, Frizzled CRD overexpressed on CHO cells: FZD4

[[record]]
molecule = "Fab-2928: anti-FZD5 Fab with antibody variable region Fv-2928; CDR SEQ ID NOs: 35, 36, 67, 105, 143, 175 (antibody, V domains shown) VH: EVQLVESGGGLVQPGGSLRLSCAASGFNISYSSIHWVRQAPGKGLEWVASIYPSYSSTYYADSVKGRFTISADTSKNTAYLQMNSLRAEDTAVYYCARYYAMDYWGQGTLVTVSS VL: DIQMTQSPSSLSASVGDRVTITCRASQSVSSAVAWYQQKPGKAPKLLIYSASSLYSGVPSRFSGSRSGTDFTLTISSLQPEDFATYYCQQAFYYPITFGQGTKVEIK"
measvalue = "−"

[[record]]
molecule = "Fab-2934: anti-FZD5 Fab with antibody variable region Fv-2934; CDR SEQ ID NOs: 35, 36, 73, 110, 149, 155 (antibody, V domains shown) VH: EVQLVESGGGLVQPGGSLRLSCAASGFNISYSYMHWVRQAPGKGLEWVASIYSSSGSTSYADSVKGRFTISADTSKNTAYLQMNSLRAEDTAVYYCARGAIDYWGQGTLVTVSS VL: DIQMTQSPSSLSASVGDRVTITCRASQSVSSAVAWYQQKPGKAPKLLIYSASSLYSGVPSRFSGSRSGTDFTLTISSLQPEDFATYYCQQWYHYGLITFGQGTKVEIK"
measvalue = "−"


Values from patent US20210253718A1
